# Test system: astro (control astrocytes)
# assay_remarks: Drug repurposing screens with cells derived from glioblastoma tumor samples (AID 1345199); also: nearly all actives have a fitted effect of over 40% in size
# condition_summary: viability, ATP luminescence, 48 h; series mostly up to 45.9 µM
Inconclusive results are not listed. Activity calls are given as the source filed them. Calls follow the shape of the dose curve; as a rule, active = well fitted inhibition curve with a large enough effect; inconclusive = small, poorly fitted or top-dose-only effect; inactive = flat fitted curve, though single readings scatter.
Returns: one label drawn from class 1 = active, class 0 = inactive

(Q) How was COc1cc(N)c(Cl)cc1C(=O)NC1CCN(CCCOc2ccc(F)cc2)CC1OC (stereo unspecified) classified in this test?
(A) class 0

(Q) Look up the recorded call for CC(Cc1ccccc1)(NC(=O)CN)c1ccccc1 (stereo unspecified) in this test.
(A) class 0

(Q) Please share the test call associated with `Cc1cc(=O)n(-c2ccccc2)n1C` .
(A) class 0

(Q) I would be grateful if you could indicate the recorded call for `C[C@]12CC[C@@H]3c4ccc(O)cc4CC[C@H]3[C@@H]1C[C@@H](O)[C@@H]2O` .
(A) class 0

(Q) What did this assay record as the result for `Nc1ccc(C(=O)O)cc1` ?
(A) class 0

(Q) Given `O=C1CCC(c2ccc(-n3ccnc3)cc2)=NN1` , state the outcome it received in this test.
(A) class 0

(Q) Could you please tell me the result logged for C[n+]1c2cc(N)ccc2cc2ccc(N)cc21 (tested in a mixture with another compound) in this assay?
(A) class 1

(Q) Record request — test call for `CCCSS/C(CCO)=C(\C)N(C=O)Cc1cnc(C)nc1N`
(A) class 1

(Q) // param item: `C[C@H](O)C(=O)Nc1c(I)c(C(=O)NC(CO)CO)c(I)c(C(=O)NC(CO)CO)c1I` ; yields the recorded call
(A) class 0

(Q) Hi team, can someone confirm the assay call for `NCCC(O)(P(=O)(O)O)P(=O)(O)O` ?
(A) class 0

(Q) Could you kindly confirm the outcome this assay logged for `C[C@]12CCC(=O)C=C1[C@@H]1C[C@@H]1[C@H]1[C@@H]3[C@@H]4C[C@@H]4[C@@]4(CCC(=O)O4)[C@@]3(C)CC[C@@H]12` ?
(A) class 0
